System: primary EMM cells eRGO1
assay summary: crystal violet staining assay (CVS), proliferation
Type: cell-based, horse
conditions: eRGO1, 96 h; mean (95% CI)
Answer each item with its documented IC50.

I'm hoping you can list IC50 for every molecule here, please.
1. C=C(C)[C@@H]1CC[C@]2(COS(N)(=O)=O)CC[C@]3(C)[C@H](CC[C@@H]4[C@@]5(C)CC[C@H](OS(N)(=O)=O)C(C)(C)[C@@H]5CC[C@]43C)[C@@H]12
2. C=C(C)[C@@H]1CC[C@]2(C(=O)OCC(N)(CO)CO)CC[C@]3(C)[C@H](CC[C@@H]4[C@@]5(C)CC[C@H](OC(C)=O)C(C)(C)[C@@H]5CC[C@]43C)[C@@H]12

A.
1. 15 µM
2. < 1 µM
